Measured kon values are reported for all entries that follow.
molecular target: T1, His-tagged CD47 recombinant protein, CD47-His (human, UniProt Q08722 19-141, limits assumed); test: BLI (Octet Red 96), antibody on AHC sensor, CD47-His 100 nM
T1 construct: it is not restated for CD47-His; also called human CD47-His protein; antigen CD47-His; not shown: His tag
Property name: kon (M⁻¹ s⁻¹)

Binder	Endpoint result
c20H4G5 (antibody, V domains shown) VH: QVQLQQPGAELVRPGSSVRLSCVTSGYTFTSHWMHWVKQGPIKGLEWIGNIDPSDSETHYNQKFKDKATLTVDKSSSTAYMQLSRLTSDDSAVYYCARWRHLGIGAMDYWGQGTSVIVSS VL: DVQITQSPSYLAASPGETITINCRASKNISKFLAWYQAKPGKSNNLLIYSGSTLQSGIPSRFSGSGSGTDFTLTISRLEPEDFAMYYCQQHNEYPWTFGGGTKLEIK	290000
c25E3B5 (antibody, V domains shown) VH: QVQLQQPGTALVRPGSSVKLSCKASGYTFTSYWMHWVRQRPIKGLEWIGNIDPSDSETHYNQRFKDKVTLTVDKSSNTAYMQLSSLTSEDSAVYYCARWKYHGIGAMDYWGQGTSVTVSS VL: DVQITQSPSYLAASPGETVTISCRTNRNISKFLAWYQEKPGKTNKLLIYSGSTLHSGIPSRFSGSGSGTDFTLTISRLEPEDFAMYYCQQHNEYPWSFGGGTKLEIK	234000
c95E2D10 (antibody, V domains shown) VH: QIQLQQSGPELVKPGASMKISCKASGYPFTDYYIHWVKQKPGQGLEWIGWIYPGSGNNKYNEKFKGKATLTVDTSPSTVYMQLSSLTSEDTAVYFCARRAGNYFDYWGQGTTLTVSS VL: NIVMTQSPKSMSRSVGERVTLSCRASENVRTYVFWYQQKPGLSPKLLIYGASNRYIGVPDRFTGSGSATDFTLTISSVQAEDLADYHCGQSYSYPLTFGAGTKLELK	350000
